Parameter: melting point. Scope: all listed entries.
outcome_measure: melting point

> print(dat)
                               given.smiles         result
1  CCOC(=O)OC1=C(c2c(C)cc(Cl)cc2C)C(=O)N(OC)C12CCN(OC)CC2  122 to 125 °C
2  COCON1C(=O)C(c2c(F)ccc(C)c2Cl)=C(O)C12CCN(OC)CC2  155 to 158 °C
3  CCOC(=O)OC1=C(c2c(F)ccc(C)c2Cl)C(=O)N(OCOC)C12CCN(OC)CC2  116 to 119 °C
4  COCON1C(=O)C(c2c(C)cc(-c3ccc(Cl)cc3)cc2C)=C(O)C12CCN(OC)CC2  128 °C (dec.)

====

outcome_measure: melting point

> print(dat)
                                   compound  outcome.measure         result
1  COCON1C(=O)C(c2c(C)cc(Cl)cc2C)=C(O)C12CCN(OC)CC2 [P2ii.104]    melting point  176 to 178 °C
2  COCON1C(=O)C(c2cc(Br)c(F)cc2C)=C(O)C12CCN(OC)CC2 [P2ii.89]    melting point    64 to 67 °C
3  COCCON1C(=O)C(c2c(C)cc(Cl)cc2C)=C(O)C12CCN(OC)CC2 [P2ii.101]    melting point  161 to 164 °C
4  CON1CCC2(CC1)C(O)=C(c1cc(Br)c(C)cc1C)C(=O)N2C [P2.28]    melting point  182 to 183 °C
5  CON1CCC2(CC1)C(O)=C(c1c(C)cc(Cl)cc1C)C(=O)N2OC [P2ii.102]    melting point    88 to 92 °C
6  CCN1C(=O)C(c2c(C)cc(C)cc2C)=C(O)C12CCN(OC)CC2 [P2.11]    melting point  218 to 221 °C
7  CCOC(=O)OC1=C(c2cc(C)c(C)cc2Cl)C(=O)N(C)C12CCN(OC)CC2 [P1.22]    melting point  149 to 150 °C
8  COCON1C(=O)C(c2cc(C)ccc2C)=C(OC)C12CCN(OC)CC2 [P1ii.31]    melting point    91 to 93 °C
9  CON1CCC2(CC1)C(O)=C(c1c(C)cc(C)cc1C)C(=O)N2CC1CC1 [P2.8]    melting point  223 to 225 °C

====

outcome_measure: melting point

> print(dat)
                                    molecule  outcome.measure         result
 1  CON1CCC2(CC1)C(O)=C(c1c(C)cc(C)cc1C)C(=O)N2OCC1CCCCC1    melting point  169 to 172 °C
 2  COCON1C(=O)C(c2cc(C)ccc2C)=C(OC(=O)CC(C)(C)C)C12CCN(OC)CC2    melting point    93 to 95 °C
 3  CCOC(=O)OC1=C(c2cc(C)ccc2C)C(=O)N(C)C12CCN(OC)CC2 [P1.1]    melting point   96 to 110 °C
 4  CCOC(=O)OC1=C(c2cc(C)c(C)cc2Br)C(=O)N(C)C12CCN(OC)CC2 [P1.20]    melting point  158 to 159 °C
 5  COCCON1C(=O)C(c2cc(Br)c(F)cc2C)=C(O)C12CCN(OC)CC2    melting point    71 to 74 °C
 6  CON1CCC2(CC1)C(O)=C(c1c(C)cc(Cl)cc1C)C(=O)N2OC1CCCO1 (stereo not drawn)    melting point  137 to 139 °C
 7  CCOC(=O)OC1=C(c2c(C)cc(C)cc2C)C(=O)N(CC)C12CCN(OC)CC2 [P1.8]    melting point  101 to 103 °C
 8  CON1CCC2(CC1)C(O)=C(c1cc(C)c(C)cc1Br)C(=O)N2C [P2.23]    melting point  191 to 193 °C
 9  CON1CCC2(CC1)C(O)=C(c1cc(C)c(C)cc1C)C(=O)N2C [P2.25]    melting point  183 to 186 °C
10  CON1CCC2(CC1)C(O)=C(c1cc(C)c(C)cc1Cl)C(=O)N2C [P2.26]    melting point  191 to 192 °C
11  COCCON1C(=O)C(c2cc(Br)c(C)cc2C)=C(O)C12CCN(OC)CC2    melting point    63 to 64 °C
12  CON1CCC2(CC1)C(O)=C(c1cc(Br)c(C)cc1C)C(=O)N2OC    melting point    86 to 87 °C
13  CON1CCC2(CC1)C(O)=C(c1cc(C)ccc1C)C(=O)N2C [P2.1]    melting point  121 to 123 °C
14  CCOC(=O)OC1=C(c2c(Cl)ccc(C)c2F)C(=O)N(OC2CCCC2)C12CCN(OC)CC2    melting point  135 to 137 °C
15  CON1CCC2(CC1)C(O)=C(c1c(C)cc(C)cc1C)C(=O)N2OCCOC1CCCCO1 (stereo not drawn)    melting point  135 to 137 °C
